# Subject Of Test: full-length PI3Kα (full-length p110α/p85α) (Homo sapiens (Human))
# Sequence (P42336 whole entry): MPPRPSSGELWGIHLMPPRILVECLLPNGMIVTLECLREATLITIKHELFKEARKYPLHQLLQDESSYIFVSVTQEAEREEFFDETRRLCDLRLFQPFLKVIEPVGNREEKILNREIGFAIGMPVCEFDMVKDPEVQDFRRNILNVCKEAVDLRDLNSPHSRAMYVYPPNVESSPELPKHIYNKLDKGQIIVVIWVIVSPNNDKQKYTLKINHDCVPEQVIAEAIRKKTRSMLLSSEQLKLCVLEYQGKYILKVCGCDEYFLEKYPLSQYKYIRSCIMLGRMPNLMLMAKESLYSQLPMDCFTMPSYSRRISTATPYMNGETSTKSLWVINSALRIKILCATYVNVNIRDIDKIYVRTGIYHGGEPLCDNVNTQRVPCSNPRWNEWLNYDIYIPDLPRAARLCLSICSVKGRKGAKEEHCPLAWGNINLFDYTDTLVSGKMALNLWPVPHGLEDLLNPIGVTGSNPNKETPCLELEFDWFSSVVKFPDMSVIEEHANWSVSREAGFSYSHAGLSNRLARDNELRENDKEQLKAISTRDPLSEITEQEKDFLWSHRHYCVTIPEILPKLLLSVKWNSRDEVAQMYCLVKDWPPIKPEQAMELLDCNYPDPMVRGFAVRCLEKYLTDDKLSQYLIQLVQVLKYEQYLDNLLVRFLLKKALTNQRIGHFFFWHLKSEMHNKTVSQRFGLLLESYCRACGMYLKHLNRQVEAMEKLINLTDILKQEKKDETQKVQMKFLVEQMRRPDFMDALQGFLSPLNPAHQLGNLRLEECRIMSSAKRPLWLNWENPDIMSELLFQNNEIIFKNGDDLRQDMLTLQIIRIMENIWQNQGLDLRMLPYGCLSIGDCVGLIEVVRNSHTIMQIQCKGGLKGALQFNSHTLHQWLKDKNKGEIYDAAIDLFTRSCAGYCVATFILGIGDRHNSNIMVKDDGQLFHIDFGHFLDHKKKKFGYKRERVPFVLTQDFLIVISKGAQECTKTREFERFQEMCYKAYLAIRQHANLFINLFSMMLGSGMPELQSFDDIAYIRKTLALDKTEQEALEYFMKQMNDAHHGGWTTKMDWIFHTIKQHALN
# Sequence (P27986 whole entry partner): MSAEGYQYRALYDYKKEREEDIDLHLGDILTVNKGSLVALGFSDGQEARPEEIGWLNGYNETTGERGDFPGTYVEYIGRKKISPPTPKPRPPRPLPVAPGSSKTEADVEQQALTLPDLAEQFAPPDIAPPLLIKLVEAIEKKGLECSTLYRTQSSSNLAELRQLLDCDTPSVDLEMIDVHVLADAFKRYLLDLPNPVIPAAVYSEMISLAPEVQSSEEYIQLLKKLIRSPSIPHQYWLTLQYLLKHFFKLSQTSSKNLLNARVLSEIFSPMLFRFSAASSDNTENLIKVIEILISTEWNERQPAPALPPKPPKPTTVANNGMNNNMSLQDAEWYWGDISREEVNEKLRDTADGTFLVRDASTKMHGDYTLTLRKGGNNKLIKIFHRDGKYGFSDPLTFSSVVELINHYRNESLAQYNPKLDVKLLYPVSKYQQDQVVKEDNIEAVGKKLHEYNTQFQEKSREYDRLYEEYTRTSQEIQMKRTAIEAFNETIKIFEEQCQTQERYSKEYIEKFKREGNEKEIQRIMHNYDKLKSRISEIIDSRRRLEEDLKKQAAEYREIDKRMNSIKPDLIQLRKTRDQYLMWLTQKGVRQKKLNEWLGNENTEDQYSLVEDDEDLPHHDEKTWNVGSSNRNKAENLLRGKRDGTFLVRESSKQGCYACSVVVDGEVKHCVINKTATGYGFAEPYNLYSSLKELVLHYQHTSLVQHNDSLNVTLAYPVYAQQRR
# Protocol Details: PI3KA_FL fluorescence polarization kinase assay (Ki)
# Assay type: biochemical
# Assay Context: 41 μM ATP
Rule: PI3KA_FL Ki below 0.8 nM gives met, anything at or above gives not met.

Nc1ncc(-c2nc(N3CCOCC3)nc3c2CCN3[C@H]2C[C@H](C(N)=O)C2)cn1 | met

Q: Is the reported PI3KA_FL Ki for COC(=O)N1CC[C@H](N2CCc3c(-c4cnc(N)nc4)nc(N4CCOCC4)nc32)C1 strictly below 0.8 nM?
Result: met

Q: Quick check: does CNS(=O)(=O)N1CCC[C@H](N2CCc3c(-c4cnc(N)nc4)nc(N4CCOCC4)nc32)C1 have PI3KA_FL Ki under 0.8 nM?
Result: not met
